# tested on: Glutathione S-transferase omega-1 (Homo sapiens, UniProt P78417)
# Sequence (P78417 whole entry): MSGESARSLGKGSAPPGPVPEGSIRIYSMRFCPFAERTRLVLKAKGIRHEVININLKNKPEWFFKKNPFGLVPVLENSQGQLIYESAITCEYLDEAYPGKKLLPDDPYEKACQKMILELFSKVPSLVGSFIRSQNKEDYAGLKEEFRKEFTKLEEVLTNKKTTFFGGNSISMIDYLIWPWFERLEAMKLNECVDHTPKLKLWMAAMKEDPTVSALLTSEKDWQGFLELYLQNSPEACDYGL
# test description: Inhibition of recombinant GSTO1-1 (unknown origin) expressed in Escherichia coli using S-(4-nitrophenacyl)glutathione as substrate preincubated for 2 mins followed by substrate addition by 4-NPG assay
pIC50: −log10 of the molar value.
parameter: pIC50

Some compounds with known pIC50 results, for comparison:
compound	parameter	value measured
CN(C)S(=O)(=O)c1cc(NC(=O)CCl)ccc1Br	pIC50	6.82
O=C(CCl)Nc1ccc(Cl)c(S(=O)(=O)NCC2CCCO2)c1 (configuration not stated)	pIC50	6.70
CN(CCO)S(=O)(=O)c1cc(NC(=O)CCl)ccc1Cl	pIC50	6.74

(P) CN(C)S(=O)(=O)c1cc(NC(=O)CCl)ccc1I
(Q) CN(C)S(=O)(=O)c1cc(NC(=O)CCl)ccc1OC(F)(F)F
In: From the recorded data, which exceeds the other in pIC50: P or Q ? // respond with label for picked entry
Out: P

----------
# tested on: UniProt O09131
# test description: Inhibition of GSTO1-1 in mouse bone marrow derived macrophage cells assessed as reduction in LPS-induced IL-1beta release by measuring IL1 beta level at 5 uM pretreated with LPS for 3 hrs followed by compound addition and measured after 1 hr by ELISA relative to control
# Set-up: scale not given: the % may be the effect or the level left
parameter: Activity (%)

Some compounds with known Activity results, for comparison:
compound	Activity / %
COCCCN(C)S(=O)(=O)c1cc(NC(=O)CCl)ccc1Cl	41.5
CC(C)NS(=O)(=O)c1cc(NC(=O)CCl)ccc1Cl	36
COCCN(C)S(=O)(=O)c1cc(NC(=O)CCl)ccc1Cl	61.3

(a) CN(C)S(=O)(=O)c1cc(C2CO2)ccc1Cl (stereo not given)
(b) O=C(CCl)Nc1ccc(Cl)c(S(=O)(=O)N2CCOCC2)c1
In: From the recorded data, which exceeds the other in Activity: a or b ? // respond with label for picked entry
Out: a
(a: 43.7%, b: 24.3%)

----------
# test description: Kinetic solubility of compound in water after 30 mins by nephelometry
# Assay type: physicochemical
# experimental context: read-out: Kinetic_solubility
parameter: solubility kinetic at 0.5 h

In: What value of solubility kinetic at 0.5 h has been reported for the following compound? "CN(C)S(=O)(=O)c1cc(NC(=O)CCl)ccc1Cl"
Out: 50 to 100 µg/mL

----------
# test description: Drug concentration in Swiss mouse plasma at 30 mg/kg, ip measured up to 4 hrs post dose by UPLC-MS analysis
# Format: ADME, organism-based
parameter: concentration at 4 h (nM)
Reply numerically in nM, unit not repeated.

In: What value of concentration at 4 h has been reported for the following compound? "O=C(CCl)Nc1ccc(C(F)(F)F)c(S(=O)(=O)N2CCOCC2)c1"
Out: 6.5

----------
# tested on: UniProtKB P78417
# test description: Inhibition of recombinant GSTO1-1 (unknown origin) expressed in Escherichia coli using S-(4-nitrophenacyl)glutathione as substrate preincubated for 2 mins followed by substrate addition by 4-NPG assay
pIC50: −log10 of the molar value.
parameter: pIC50

Some compounds with known pIC50 results, for comparison:
compound	parameter	value measured
O=C(CCl)Nc1ccc(Cl)c(S(=O)(=O)N2CCOCC2)c1	pIC50	6.80
CN(C)S(=O)(=O)c1cc(NC(=O)CCl)ccc1C(F)(F)F	pIC50	7.22
O=C(CCl)Nc1ccc(Cl)c(S(=O)(=O)NC2CCOC2)c1 (configuration not stated)	pIC50	6.47
O=C(CCl)Nc1ccc(C(F)(F)F)c(S(=O)(=O)N2CCOCC2)c1	pIC50	6.60
COCCCNS(=O)(=O)c1cc(NC(=O)CCl)ccc1Cl	pIC50	6.96

(1) CC(C)NS(=O)(=O)c1cc(NC(=O)CCl)ccc1Cl
(2) CN(C)S(=O)(=O)c1cc(NC(=O)CCl)ccc1-c1ccccc1
In: Quick one: lower pIC50, 1 or 2 ? // respond with label for picked entry
Out: 2
(2: 6.15, 1: 7.15)

(A) O=C(CCl)Nc1ccc(Cl)c(S(=O)(=O)NCCO)c1
(B) COCCNS(=O)(=O)c1cc(NC(=O)CCl)ccc1Cl
In: Quick one: lower pIC50, A or B ? // respond with label for picked entry
Out: A

----------
# test description: Drug concentration in Swiss mouse plasma at 30 mg/kg, ip measured up to 2 hrs post dose by UPLC-MS analysis
# Assay type: ADME, organism-based
parameter: concentration at 2 h (nM)
Reply numerically in nM, unit not repeated.

In: What value of concentration at 2 h has been reported for the following compound? "CN(C)S(=O)(=O)c1cc(NC(=O)CCl)ccc1C(F)(F)F"
Out: 1.5

----------
# tested on: Glutathione S-transferase omega-1 (Homo sapiens)
# test description: Inhibition of recombinant GSTO1-1 (unknown origin) expressed in Escherichia coli assessed as inhibitor constant using S-(4-nitrophenacyl)glutathione as substrate preincubated for 1 to 6 mins followed by substrate addition by spectrophotmetric analysis
pKi: −log10 of the molar value.
parameter: pKi

Some compounds with known pKi results, for comparison:
structure smiles	parameter	value measured
CN(C)S(=O)(=O)c1cc(CS(=O)(=O)F)ccc1Cl	pKi	5.02
CC(C)NS(=O)(=O)c1cc(NC(=O)CCl)ccc1Cl	pKi	5.32
CN(C)S(=O)(=O)c1cc(NC(=O)CCl)ccc1C(F)(F)F	pKi	5.92
COCCCNS(=O)(=O)c1cc(NC(=O)CCl)ccc1Cl	pKi	5.00

(a) O=C(CCl)Nc1ccc(Cl)c(S(=O)(=O)N2CCOCC2)c1
(b) O=C(CCl)Nc1ccc(C(F)(F)F)c(S(=O)(=O)N2CCOCC2)c1
In: Quick one: lower pKi, a or b ? // respond with label for picked entry
Out: a

----------
# tested on: Glutathione S-transferase omega-1 (Mus musculus) (UniProt O09131)
# Sequence (whole entry): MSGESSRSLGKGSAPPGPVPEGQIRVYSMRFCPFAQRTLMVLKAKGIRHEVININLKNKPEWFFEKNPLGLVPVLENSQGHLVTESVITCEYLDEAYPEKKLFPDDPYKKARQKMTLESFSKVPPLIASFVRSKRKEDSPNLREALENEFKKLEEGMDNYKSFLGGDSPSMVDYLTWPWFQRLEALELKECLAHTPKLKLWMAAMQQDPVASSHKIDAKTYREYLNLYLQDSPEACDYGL
# test description: Inhibition of GSTO1-1 in mouse bone marrow derived macrophage cells assessed as reduction in LPS-induced IL-1beta release by measuring IL1 beta level at 5 uM pretreated with LPS for 3 hrs followed by compound addition and measured after 1 hr by ELISA relative to control
# Parameters: scale not given: the % may be the effect or the level left
parameter: Activity (%)

Some molecules with known Activity results, for comparison:
structure smiles	Activity [%]
C=CC(=O)Nc1ccc(Cl)c(S(=O)(=O)N(C)C)c1	92.8
COCCNS(=O)(=O)c1cc(NC(=O)CCl)ccc1Cl	47.8

(a) CN(C)S(=O)(=O)c1cc(NC(=O)CCl)ccc1C(F)(F)F
(b) CN(C)S(=O)(=O)c1cc(NC(=O)CCl)ccc1Cl
(c) O=C(CCl)Nc1ccc(C(F)(F)F)c(S(=O)(=O)N2CCOCC2)c1
In: Ascending by Activity, please. Your answer should be the labels, listed in the requested order.
Out: c, a, b
(c: 3.4%, a: 27.5%, b: 66.8%)

----------
# test description: Half life in human liver microsomes at 1 uM incubated for 60 mins in presence of NADPH by UPLC-MS analysis
# Format: ADME, Microsome
parameter: half-life at 1 µM

In: What value of half-life at 1 µM has been reported for the following molecule? "CN(C)S(=O)(=O)c1cc(NC(=O)CCl)ccc1Cl"
Out: < 2 min

----------
Assay read-out Kinact; system under study: Glutathione S-transferase omega-1 (Homo sapiens).
parameter: Kinact (min⁻¹)

Some compounds with known Kinact results, for comparison:
compound	units symbol	Kinact
O=C(CCl)Nc1ccc(C(F)(F)F)c(S(=O)(=O)N2CCOCC2)c1	min⁻¹	0.85
O=C(CCl)Nc1ccc(Cl)c(S(=O)(=O)N2CCOCC2)c1	min⁻¹	8.1
CC(C)NS(=O)(=O)c1cc(NC(=O)CCl)ccc1Cl	min⁻¹	3

(A) COCCCNS(=O)(=O)c1cc(NC(=O)CCl)ccc1Cl
(B) COCCN(C)S(=O)(=O)c1cc(NC(=O)CCl)ccc1Cl
In: Quick one: lower Kinact, A or B ? // respond with label for picked entry
Out: B
(B: 0.61 min⁻¹, A: 1.3 min⁻¹)

----------
# test description: Drug concentration in Swiss mouse plasma at 30 mg/kg, ip measured at 1 hr post dose by UPLC-MS analysis
# Type: ADME, organism-based
parameter: concentration at 1 h (µM)

(1) O=C(CCl)Nc1ccc(Cl)c(S(=O)(=O)N2CCOCC2)c1
(2) CN(C)S(=O)(=O)c1cc(NC(=O)CCl)ccc1Cl
In: Quick one: lower concentration at 1 h, 1 or 2 ? // respond with label for picked entry
Out: 1
(1: 0.0071 µM, 2: 0.0321 µM)
